All figures here come from paper PMC11528320.

system: P. falciparum 3D7; assay: in vitro asexual P. falciparum imaging assay, 3D7 strain; type: cell-based; settings: Plasmodium falciparum, 3D7; strain not specified; read-out: potency against P. falciparum (approximate, conclusion)
parameter-measured: IC50

>>> df
                                  structure  parameter_measured  value_observed
0  COc1cccc(/C=C/c2ccc(C(=O)Nc3cc(C(=O)Nc4cc(C(=O)NCCC(=N)N)n(C)c4)n(C)c3)cn2)c1.O=C(O)C(F)(F)F.O=C(O)C(F)(F)F                IC50         ~100 nM
1  Cn1cc(NC(=O)c2cc(NC(=O)c3ccc(/C=C/c4ccncc4)cc3)cn2C)cc1C(=O)NCCC(=N)N.O=C(O)C(F)(F)F.O=C(O)C(F)(F)F                IC50         ~100 nM

Endpoint output: IC50 of `Cn1cc(NC(=O)c2cc(NC(=O)c3ccc(/C=C/c4ccc5ccccc5c4)cc3)cn2C)cc1C(=O)NCCC(=N)N.O=C(O)C(F)(F)F` . Value?
~100 nM

* * *

Reported SI, HEK293/3D7 values for a set of compounds
test system: HEK293 cells; test: HEK293 cell viability (resazurin) assay; assay type: cell-based, Human; conditions: ratio of HEK293 IC50 (or relative IC50) to P. falciparum 3D7 IC50

Before answering, review these 3 worked examples.
>>> print(df.to_string())
                                   compound  value_observed
0  Cn1cc(NC(=O)c2cc(NC(=O)c3ccc(/C=C/c4ccc5nsnc5c4)cc3)cn2C)cc1C(=O)NCCN1CCOCC1.O=C(O)C(F)(F)F [S-MGB-188]            >193
1  CN(C)CCNC(=O)c1cc(NC(=O)c2cc(NC(=O)c3ccc(/C=C/c4ccc(N(C)C)cc4)nc3)cn2C)cn1C.O=C(O)C(F)(F)F [S-MGB-246]              90
2  Cn1cc(NC(=O)c2cc(NC(=O)c3ccc(/C=C/c4ccc5ccccc5c4)cc3)cn2C)cc1C(=O)NCCC(=N)N.O=C(O)C(F)(F)F [S-MGB-359]         > 264.8

Endpoint output: SI, HEK293/3D7 of Cn1cc(NC(=O)c2cc(NC(=O)c3ccc(/C=C/C(=O)Nc4ccccc4O)cc3)cn2C)cc1C(=O)NCCC(=N)N.O=C(O)C(F)(F)F [S-MGB-361] . Value?
>63.1

How about this compound: Cn1cc(NC(=O)c2cc(NC(=O)c3ccc(/C=C/c4cccc(F)c4)cc3)cn2C)cc1C(=O)NCCC(=N)N.O=C(O)C(F)(F)F [S-MGB-391]
>59.6

How about this compound: COc1ccc2nc3cc(Cl)ccc3c(Nc3cc(CN4CCCC4)c(O)c(CN4CCCC4)c3)c2n1 [Pyronaridine, pyronaridine, reference compound]
114

* * *

Reported pIC50 values for a set of compounds
system: P. falciparum Dd2; experiment: in vitro asexual P. falciparum imaging assay, Dd2 strain; type: cell-based; details: Plasmodium falciparum, DD2, 72 h; read-out: Dd2 IC50
The scale used: pIC50 is minus the common logarithm of the concentration in molar units.

Before answering, review these 3 worked examples.
>>> print(df.to_string())
                                   compound  value_observed
0  CC(C)CCn1cc(NC(=O)c2cc(NC(=O)c3cc(NC(=N)c4cc5ccccc5cn4)cn3C)cn2C)cc1C(=O)NCCCN(C)C.O=C(O)C(F)(F)F [S-MGB-330]            6.20
1  Cn1cc(NC(=O)c2cc(NC(=O)c3ccc(/C=C/c4ccc(C(F)(F)F)cc4)cc3)cn2C)cc1C(=O)NCCN1CCOCC1.O=C(O)C(F)(F)F [S-MGB-176]            5.91
2  Cn1cc(NC(=O)c2cc(NC(=O)c3ccc(/C=C/C(=O)Nc4ccccc4O)cc3)cn2C)cc1C(=O)NCCC(=N)N.O=C(O)C(F)(F)F [S-MGB-361]            6.25

Endpoint output: pIC50 of COc1cccc(/C=C/c2ccc(C(=O)Nc3cc(C(=O)Nc4cc(C(=O)NCCCN(C)C)n(C)c4)n(C)c3)cc2)c1.O=C(O)C(F)(F)F [S-MGB-131] . Value?
6.59

How about this compound: Cn1cc(NC(=O)c2cc(NC(=O)c3ccc(/C=C/c4ccc(F)cc4)cc3)cn2C)cc1C(=O)NCCC(=N)N.O=C(O)C(F)(F)F [S-MGB-390]
6.19

How about this compound: Cn1cc(NC(=O)c2cc(NC(=O)c3ccc(/C=C/c4ccncc4)cc3)cn2C)cc1C(=O)NCCC(=N)N.O=C(O)C(F)(F)F.O=C(O)C(F)(F)F [S-MGB-365]
7.10
